Data origin: patent US20050182242A1

What PI(4, 5)P2 was measured for each of the following?
- Test system: PI(4,5)P2 liposomes
- Assay text: Yeast proteome chip probed with PI(4,5)P2 liposomes
- Particulars: liposome binding signal on yeast proteome chip, Cy3-streptavidin detection
Lab note: jot the number down without any unit.

Name the reported PI(4, 5)P2 value associated with the molecule GPM3: yeast phosphoglycerate mutase, GST-HisX6 fusion (protein, UniProt Q12326 1-303, looked up, GST-His6 tag, yeast phosphoglycerate mutase, GST-HisX6 fusion) Phosphoglycerate mutase 3: MTVTDTFKLFILRHGQSELNSENIFCGWIDAQLTEKGKSQARHSAKLIKQFCDSNNISLPQIGYTSRLIRTQQTMDVILEELGLKHTNYVITTNTNIKEELQDTRFEGSMPVLQTWRLNERHYGAWQGQRKPDILKEYGKEKYMYIRRDYNGKPPKVNLNLEMVQEENDQGSSTGYDFKEPNRHLKYGPEEKANERLPESESLCEVVVRLKPFLNNVVLSTANKISQESCVIVGHGSSVRSLLKVLEGISDEDIKDVDIPNGIPLVIELDRDNYSFVRKFYLDPESAKVNAQMVRDEGFEKNP
112.57

# repeat for FUR1: yeast GST-HisX6 fusion protein on proteome chip (protein, UniProt P18562 1-216, looked up, GST-His6 fusion tag, yeast GST-HisX6 fusion protein on proteome chip) Uracil …: MSSEPFKNVYLLPQTNQLLGLYTIIRNKNTTRPDFIFYSDRIIRLLVEEGLNHLPVQKQIVETDTNENFEGVSFMGKICGVSIVRAGESMEQGLRDCCRSVRIGKILIQRDEETALPKLFYEKLPEDISERYVFLLDPMLATGGSAIMATEVLIKRGVKPERIYFLNLICSKEGIEKYHAAFPEVRIVTGALDRGLDENKYLVPGLGDFGDRYYCV
111.70

# repeat for PEX4: yeast GST-HisX6 fusion protein on proteome chip (protein, UniProt P29340 1-183, looked up, GST-His6 tag, yeast GST-HisX6 fusion protein on proteome chip) Ubiquitin-conjugating enzyme …: MPNFWILENRRSYTSDTCMSRIVKEYKVILKTLASDDPIANPYRGIIESLNPIDETDLSKWEAIISGPSDTPYENHQFRILIEVPSSYPMNPPKISFMQNNILHCNVKSATGEICLNILKPEEWTPVWDLLHCVHAVWRLLREPVCDSPLDVDIGNIIRCGDMSAYQGIVKYFLAERERINNH
28.31

# repeat for ERV1: yeast GST-HisX6 fusion protein on proteome chip (protein, UniProt P27882 1-189, looked up, GST-His6 tag, yeast GST-HisX6 fusion protein on proteome chip) Mitochondrial FAD-linked …: MKAIDKMTDNPPQEGLSGRKIIYDEDGKPCRSCNTLLDFQYVTGKISNGLKNLSSNGKLAGTGALTGEASELMPGSRTYRKVDPPDVEQLGRSSWTLLHSVAASYPAQPTDQQKGEMKQFLNIFSHIYPCNWCAKDFEKYIRENAPQVESREELGRWMCEAHNKVNKKLRKPKFDCNFWEKRWKDGWDE
18.94

# repeat for RPL9B: yeast GST-HisX6 fusion protein on proteome chip (protein, UniProt P51401 1-191, looked up, GST-HisX6 tag, yeast GST-HisX6 fusion protein on proteome chip) Large ribosomal subunit …: MKYIQTEQQIEIPEGVTVSIKSRIVKVVGPRGTLTKNLKHIDVTFTKVNNQLIKVAVHNGDRKHVAALRTVKSLVDNMITGVTKGYKYKMRYVYAHFPINVNIVEKDGAKFIEVRNFLGDKKIRNVPVRDGVTIEFSTNVKDEIVLSGNSVEDVSQNAADLQQICRVRNKDIRKFLDGIYVSHKGFIVEDM
1.96
